Known Ratio IC50 of a selection of compounds
- System: THP-1
- measurement-protocol: Selectivity index, ratio of IC50 for mouse S17 cells to IC50 for human THP1 cells
- Assay type: functional
Could you keep your reply to the number by itself?

C/C(=N/NS(=O)(=O)c1ccc(C)cc1)C(c1c[nH]c2ccccc12)c1c[nH]c2ccccc12    1.06
O/N=C(/c1ccc(Br)cc1)C(c1c[nH]c2ccc(O)cc12)c1c[nH]c2ccc(O)cc12    1.41
C/C(=N/NC(=O)OC(C)(C)C)C(c1c[nH]c2ccc(Br)cc12)c1c[nH]c2ccc(Br)cc12    1.14

Task: Answer with reported Ratio IC50 of Cc1ccc2[nH]cc(C(/C(=N\O)c3ccc(Br)cc3)c3c[nH]c4ccc(C)cc34)c2c1
Result: 1.81
